The reported numbers originate from the nanobody polyreactivity screen of Harvey et al. (2022).

# protocol text: yeast display, Sf9 membrane polyspecificity reagent, FACS + sequencing; frameworks hold sequencing errors
experimental readout: polyreactivity (PSR sort gate)

Solved cases below.
1) QVQLVESGGGLVQAGGSLRLSCAASGSIFYPYAMGWYRKAPGKERELVAAIRRSGVDTYYADSVKGRFTISRDYAKNTYNLQMISLKPEDTAVYYCAADPYWFFAHYDSWGQGTQVTVSS ... low polyreactivity
2) QVQLVESGGVLVQEGGSLRLSCADSGRIFYSNAMGWYRQAPGKERELVAAISYSGGRTYYADSVKGRFTISRDNAKNTVYLQMNSLIPEDTAVYYCAARYAWGYVDPGDYWGQGTQVTVSS ... high polyreactivity
3) QVQLVESGGGLVQAGGSLSLSCADSGSNFGDYAMGWYRQAPGKERELFAAISFSDGSTYYADSVKGRFTISRDNANNTVYLQMNSLKPEDTAVYYCAKDAYWGYRWYTYDYWGQGTQVTVSS ... low polyreactivity
4) QVQLVESGGGLVQAGGSLRLSCAASGITFGGYAMGWYRQAPGKERELVASIRSGSTTNYADSVKGRFTISRDNAKNTVYLQMNSLKPEDTAVYYCAARNFRNRYGYWGQGTQVTVSS ... high polyreactivity

Kindly review the next sequence as well.
Identify the reported polyreactivity (PSR sort gate) for the following entry. QVQLVESGGGLVQAGGSLRLSCAASGLTFEYYTMGWYRQAPGKERELVAAITSSGGSTYYADSVKGRFTISRDNAKNTVYLQMNSLKPEDTAVYYCAARWRHYFVWKSYDYWGQGTQVTVSS
low polyreactivity
